Provenance of the data: patent US9084828B2

Recorded ABL AVG % Activity at Specific Concentration for the following compounds
TARGET_ENTITY: ABL (Homo sapiens)
Sequence (P00519 whole entry): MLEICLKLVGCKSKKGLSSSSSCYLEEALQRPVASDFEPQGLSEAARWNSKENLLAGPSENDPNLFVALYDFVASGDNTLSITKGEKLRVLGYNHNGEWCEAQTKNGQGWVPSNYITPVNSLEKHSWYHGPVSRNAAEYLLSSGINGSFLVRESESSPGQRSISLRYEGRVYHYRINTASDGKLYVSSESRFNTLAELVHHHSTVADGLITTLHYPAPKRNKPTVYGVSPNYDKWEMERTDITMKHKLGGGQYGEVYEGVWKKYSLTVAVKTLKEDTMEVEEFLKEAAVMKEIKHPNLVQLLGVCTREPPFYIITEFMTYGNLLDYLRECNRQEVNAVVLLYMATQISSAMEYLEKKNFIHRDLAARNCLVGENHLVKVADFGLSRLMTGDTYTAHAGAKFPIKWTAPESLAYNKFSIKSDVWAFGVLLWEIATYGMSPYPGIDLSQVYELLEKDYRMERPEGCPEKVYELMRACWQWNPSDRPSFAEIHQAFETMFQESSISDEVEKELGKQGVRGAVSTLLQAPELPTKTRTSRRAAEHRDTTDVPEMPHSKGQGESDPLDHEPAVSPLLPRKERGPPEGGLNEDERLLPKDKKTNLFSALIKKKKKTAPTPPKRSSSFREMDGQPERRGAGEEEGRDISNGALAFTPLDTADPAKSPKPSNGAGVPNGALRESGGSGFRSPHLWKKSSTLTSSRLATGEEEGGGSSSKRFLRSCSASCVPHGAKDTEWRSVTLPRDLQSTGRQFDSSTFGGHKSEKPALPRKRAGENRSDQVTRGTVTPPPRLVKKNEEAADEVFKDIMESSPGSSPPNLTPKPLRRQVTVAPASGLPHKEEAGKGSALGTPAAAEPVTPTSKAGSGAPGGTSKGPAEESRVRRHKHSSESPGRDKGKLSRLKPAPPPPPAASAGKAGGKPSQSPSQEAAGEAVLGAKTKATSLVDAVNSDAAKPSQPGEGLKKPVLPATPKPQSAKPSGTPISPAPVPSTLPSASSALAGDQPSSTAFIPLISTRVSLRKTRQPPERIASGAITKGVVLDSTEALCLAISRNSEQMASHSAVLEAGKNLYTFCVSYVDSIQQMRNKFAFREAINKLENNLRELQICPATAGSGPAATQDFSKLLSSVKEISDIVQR
EXPERIMENT_NOTES: ABL tyrosine kinase inhibition, off-chip incubation mobility-shift kinase assay (Caliper LABCHIP 3000)
CONDITION_DETAILS: at 1.0E−09 (concentration unit not given); average of replicate wells
QUANTITY_MEASURED: ABL AVG % Activity at Specific Concentration (%)

| COMPOUND | TARGET_ENTITY | OBSERVED_RESULT |
| --- | --- | --- |
| COCCOCCOCCOCC(=O)OCCN1CCN(c2cc(Nc3ncc(C(=O)Nc4c(C)cccc4Cl)s3)nc(C)n2)CC1 [mPEG3-COO-Dasatinib] | ABL (Homo sapiens) | 2 |
| COCCOCCOCCOCC(=O)N[C@H](C(=O)OCCN1CCN(c2cc(Nc3ncc(C(=O)Nc4c(C)cccc4Cl)s3)nc(C)n2)CC1)C(C)C [mPEG3-Val-Dasatinib] | ABL (Homo sapiens) | 10 |
| COCCOCCOCCNC(=O)OCCN1CCN(c2cc(Nc3ncc(C(=O)Nc4c(C)cccc4Cl)s3)nc(C)n2)CC1 [mPEG3-NHCOO-Dasatinib] | ABL (Homo sapiens) | 4 |
| COCCOCCOCCOCCOCCNC(=O)OCCN1CCN(c2cc(Nc3ncc(C(=O)Nc4c(C)cccc4Cl)s3)nc(C)n2)CC1 [mPEG5-NHCOO-Dasatinib] | ABL (Homo sapiens) | 4 |
